- system: T1, human IL-12Rβ1-his (Acro Biosystems), biotinylated (human, UniProt P42701 24-545, biotinylated)
- T1 construct: bought; captured on Neutravidin in the ELISA; also called Bio-huIL-12Rβ1-His
- assayName: ELISA, periplasmic extract
Listed next: entries and their corresponding OD450 nm.
The answer should be a number; do not append a unit.

Some entries whose results are on file:
>  <binder>
VHH67B1 (VHH) VHH: QVQLVESGGGLVQAGGSLRLSCAASARIFNSYAVAWFRQTPGKEREFVASISWSGGSTNYADSVKGRFTISRDNAKNTVFLQMNSLKPADTAVYYCAADRNYYPSVLGKYTYWGQGTQVTVSS

>  <readoutValue>
2.93

$$$$
>  <binder>
VHH108B1 (VHH) VHH: EVQLVESGGGLVQPGGSLTLSCTASGFRFSDRSMGWYRQAPGKQRELVAAITVGGSTNYADSVKGRFTISRDNAKNTVYLQMNSLKPEDTALYYCNRRYPPDDYWGQGTQVTVSS

>  <readoutValue>
2.73

$$$$
>  <binder>
VHH72B1 (VHH) VHH: EVQLVESGGGLVQAGGSLRLSCAASGLTFRNYAMAWFRQAPGKEREFVAGITWGGGLTHYVDSVKGRFTISRDNGKNTVYLQMNSLKSEDTAVYYCAGKTQGSTWYHLTPDGYDYWGQGTQVTVSS

>  <readoutValue>
1.98

$$$$

Input line: Give the measured OD450 nm of VHH137B1 (VHH) VHH: QVQLVESGGGLVQAGGSLRLSCAASGRTFRTYAMGWFRQAPGKDREVVGIAAWKVASTYYVDYGDSVRGRFTISRDDAKSTVYLQMNNLMPEDTAVYYCAAGAFRTDWRSYAYWGQGTQVTVSS .
Output line: 3.31

Input line: Give the measured OD450 nm of VHH321B1 (VHH) VHH: QVQLVESGGGLVQPGGSLRLSCIASGFTFSDYAMKWVRRPPGKGLEWVSVIDSEGPTIKYSDAVRGRFTISRDNAKNTLYLQMNSLKPEDTAVYYCAKSNGGSAFSSVLYTDRGQGTQVTVSS .
Output line: 1.06

Input line: Give the measured OD450 nm of VHH276B1 (VHH) VHH: QVQLVESGGGLVQAGASLRLSCAASGRTFSSYAMGWFRQAPGKEREFVAAISGGTPNNIYYTNYKDAVRGRFTISRDNAKNTVYLQMSSLKPEDTAVYYCGATMGRYWNTGGYDYWGQGTQVTVSS .
Output line: 3.2

Input line: Give the measured OD450 nm of VHH195B1 (VHH) VHH: QVQLVESGGGLVQAGGSLRLSCAASGRTFGTYAMGWFRQAPGKERDFVARISNSGAFTHYADSVKGRFTISRDNAKNTVYLHMNSLENGDTAAYYCVATRGTNSAYYTRSTMYEYWGQGTQVTVSS .
Output line: 2.93
